Test system: THP-1 cells
protocol text: Measurement of IL-1β production, hTRF protocol (second alternative procedure), THP-1 cells
Type: cell-based, human
assay setup: Homo sapiens, THP-1, IL-1β production, human; read-out: NLRP3 hILIB EC50
measurement type: EC50 (nM)
Report the figure in nM without appending any unit label.

Ask: Look at this compound and give its reported EC50. `Cn1cnc(C(=O)NCCn2cc3c(n2)c(N)nc2cc(-c4cc[nH]n4)ccc23)c1`
Reply: 1030

Ask: Look at this compound and give its reported EC50. `COc1ccc(CC(=O)NCCn2cc3c(n2)c(N)nc2cc(-c4cc[nH]n4)ccc23)cc1`
Reply: 14700

Ask: Look at this compound and give its reported EC50. `Nc1nc2cc(-c3cc[nH]n3)ccc2c2cn(CCNC(=O)c3ccc(Cl)cn3)nc12`
Reply: 140

Ask: Look at this compound and give its reported EC50. `Nc1nc2cc(-c3cc[nH]n3)ccc2c2cn(CCNC(=O)c3coc(Cl)n3)nc12`
Reply: 50

Ask: Look at this compound and give its reported EC50. `Nc1nc2cc(-c3cc[nH]n3)ccc2c2nn(CCF)cc12`
Reply: 190

Ask: Look at this compound and give its reported EC50. `CC(C)(F)C(=O)NCCn1cc2c(N)nc3cc(-c4cc[nH]n4)ccc3c2n1`
Reply: 3490

Ask: Look at this compound and give its reported EC50. CCC(O)Cn1cc2c(N)nc3cc(-c4cc[nH]n4)ccc3c2n1 (centres unmarked)
Reply: 420

Ask: Look at this compound and give its reported EC50. `CS(=O)(=O)CCCn1ncc2c(N)nc3cc(-c4cc[nH]n4)ccc3c21`
Reply: 4370

Ask: Look at this compound and give its reported EC50. COCC(C)n1cc2c(N)nc3cc(-c4cc[nH]n4)ccc3c2n1 (single isomer, unassigned) [Example 337]
Reply: 220

Ask: Look at this compound and give its reported EC50. `COCCCCn1cc2c(N)nc3cc(-c4cc[nH]n4)ccc3c2n1`
Reply: 200

Ask: Look at this compound and give its reported EC50. `NCCn1cc2c(N)nc3cc(-c4cc[nH]n4)ccc3c2n1`
Reply: 380

Ask: Look at this compound and give its reported EC50. `CCCn1cc2c(n1)c(N)nc1cc(-c3ccn[nH]3)ccc12`
Reply: 220

Ask: Look at this compound and give its reported EC50. `Cc1nccc(C(=O)NCCn2cc3c(n2)c(N)nc2cc(-c4cc[nH]n4)ccc23)n1`
Reply: 1430

Ask: Look at this compound and give its reported EC50. `Nc1nc2cc(-c3cc[nH]n3)ccc2c2nn(CCCN3CCOCC3)cc12`
Reply: 3210

Ask: Look at this compound and give its reported EC50. `COC(=O)NCc1nc2c(N)nc3cc(-c4ccn[nH]4)ccc3c2s1`
Reply: 370

Ask: Look at this compound and give its reported EC50. `Nc1nc2cc(-c3cc[nH]n3)ccc2c2cn(CCCOc3cccc(F)c3)nc12`
Reply: 350

Ask: Look at this compound and give its reported EC50. `Nc1nc2cc(-c3cc[nH]n3)ccc2c2cn(CCCNC(=O)c3ccc(F)cn3)nc12`
Reply: 8340

Ask: Look at this compound and give its reported EC50. `Nc1nc2cc(-c3cc[nH]n3)ccc2c2cn(CCNC(=O)c3cccc(Cl)n3)nc12`
Reply: 270

Ask: Look at this compound and give its reported EC50. Nc1nc2cc(-c3cc[nH]n3)ccc2c2nn(CC(O)CC(F)(F)F)cc12 (single isomer, unassigned)
Reply: 640

Ask: Look at this compound and give its reported EC50. `CC(C)n1cc2c(N)nc3cc(-c4cc[nH]n4)ccc3c2n1`
Reply: 220

Ask: Look at this compound and give its reported EC50. `Cc1ccc(C(=O)NCCn2cc3c(n2)c(N)nc2cc(-c4cc[nH]n4)ccc23)nc1`
Reply: 210

Ask: Look at this compound and give its reported EC50. CCC(=O)NC(C)Cn1cc2c(N)nc3cc(-c4ccn[nH]4)ccc3c2n1 (centres unmarked)
Reply: 2830

Ask: Look at this compound and give its reported EC50. `CS(=O)(=O)CCCn1cc2c(N)nc3cc(-n4cccn4)ccc3c2n1`
Reply: 2300

Ask: Look at this compound and give its reported EC50. `Nc1nc2cc(-c3cc[nH]n3)ccc2c2cn(CCNC(=O)c3ccc(OCc4ccccc4)cn3)nc12`
Reply: 300

Ask: Look at this compound and give its reported EC50. `COCCOCCn1cc2c(N)nc3cc(-c4cc[nH]n4)ccc3c2n1`
Reply: 750

Ask: Look at this compound and give its reported EC50. `COCCOCCn1cc2c(n1)c(N)nc1cc(-n3cccn3)ccc12`
Reply: 1810

Ask: Look at this compound and give its reported EC50. Nc1nc2cc(-c3cc[nH]n3)ccc2c2nn(CC3CCOC3)cc12 (single isomer, unassigned)
Reply: 700

Ask: Look at this compound and give its reported EC50. `Nc1nc2cc(-n3cccn3)ccc2c2nn(CCc3c[nH]cn3)cc12`
Reply: 200

Ask: Look at this compound and give its reported EC50. Nc1nc2cc(-c3cc[nH]n3)ccc2c2c1cnn2CC1CCCO1 (centres unmarked)
Reply: 870

Ask: Look at this compound and give its reported EC50. `Cc1nnc(Cn2ncc3c(N)nc4cc(-c5cc[nH]n5)ccc4c32)o1`
Reply: 1800

Ask: Look at this compound and give its reported EC50. `Nc1nc2cc(-c3cc[nH]n3)ccc2c2cn(CCCO)nc12`
Reply: 450

Ask: Look at this compound and give its reported EC50. `Nc1nc2cc(-c3cc[nH]n3)ccc2c2nn(C[C@@H]3CCCO3)cc12`
Reply: 170

Ask: Look at this compound and give its reported EC50. `CCN(CCn1cc2c(N)nc3cc(-c4ccn[nH]4)ccc3c2n1)C(C)=O`
Reply: 5130

Ask: Look at this compound and give its reported EC50. `Nc1nc2cc(-c3cc[nH]n3)ccc2c2nn(C[C@@H](O)CO)cc12`
Reply: 1880

Ask: Look at this compound and give its reported EC50. CC(O)CCn1cc2c(N)nc3cc(-c4ccn[nH]4)ccc3c2n1 (centres unmarked)
Reply: 250
